targetOrSystem: unphosphorylated c-FMS kinase (uFMS, Seq. ID no. 1) (Homo sapiens, UniProt P07333)
Sequence (P07333 538-972): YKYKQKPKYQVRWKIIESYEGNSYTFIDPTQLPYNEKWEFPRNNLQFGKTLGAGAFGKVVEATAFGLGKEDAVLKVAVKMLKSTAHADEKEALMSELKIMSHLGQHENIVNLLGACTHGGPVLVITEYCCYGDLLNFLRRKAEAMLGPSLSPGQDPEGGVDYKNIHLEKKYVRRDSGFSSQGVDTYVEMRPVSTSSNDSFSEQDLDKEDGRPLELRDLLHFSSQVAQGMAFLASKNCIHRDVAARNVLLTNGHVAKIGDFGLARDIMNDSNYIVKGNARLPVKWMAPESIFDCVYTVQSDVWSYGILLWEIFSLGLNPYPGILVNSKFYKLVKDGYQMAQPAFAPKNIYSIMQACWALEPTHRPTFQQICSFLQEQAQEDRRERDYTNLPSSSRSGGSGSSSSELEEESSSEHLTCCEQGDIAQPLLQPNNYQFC
method: uFMS kinase enzymatic assay (pyruvate kinase/lactate dehydrogenase coupled)
conditionDescription: ATP 500 μM, rate 3 to 4 h
// values below are reported IC50

inputSmiles: CNC(=O)c1cc(Oc2ccc(-n3nc(C(C)(C)C)[nH]c3=O)nc2)ccn1
IC50: 0.01 to 0.1 µM
//
inputSmiles: Cc1nc(-n2nc(-c3ccc(F)cc3)[nH]c2=O)ccc1Oc1ccnc(-c2cnn(C)c2)c1
IC50: ≤ 0.01 µM
//
inputSmiles: Cc1nc(-n2nc(C(C)(C)C)[nH]c2=O)ccc1Oc1ccnc(-c2ccc(C3CCN(C)CC3)cc2)c1
IC50: ≤ 0.01 µM
//
inputSmiles: Cc1nc(-n2nc(C(C)(C)C)[nH]c2=O)ccc1Oc1ccnc(-c2cnn(C)c2)c1
IC50: ≤ 0.01 µM

Quote IC50 with test system unphosphorylated c-FMS kinase (uFMS, Seq. ID no. 1) (Homo sapiens, UniProt P07333) for "Cc1nc(-n2nc(C(C)(C)C)[nH]c2=O)ccc1Oc1ccnc(NC(=O)C2CC2)c1" 0.1 to 1 µM

====

targetOrSystem: unphosphorylated c-KIT kinase (uKIT, Seq. ID no. 2) (Homo sapiens)
Construct: uKit with N-terminal GST fusion used for screening
Sequence (P10721 with tags, fused parts or gaps): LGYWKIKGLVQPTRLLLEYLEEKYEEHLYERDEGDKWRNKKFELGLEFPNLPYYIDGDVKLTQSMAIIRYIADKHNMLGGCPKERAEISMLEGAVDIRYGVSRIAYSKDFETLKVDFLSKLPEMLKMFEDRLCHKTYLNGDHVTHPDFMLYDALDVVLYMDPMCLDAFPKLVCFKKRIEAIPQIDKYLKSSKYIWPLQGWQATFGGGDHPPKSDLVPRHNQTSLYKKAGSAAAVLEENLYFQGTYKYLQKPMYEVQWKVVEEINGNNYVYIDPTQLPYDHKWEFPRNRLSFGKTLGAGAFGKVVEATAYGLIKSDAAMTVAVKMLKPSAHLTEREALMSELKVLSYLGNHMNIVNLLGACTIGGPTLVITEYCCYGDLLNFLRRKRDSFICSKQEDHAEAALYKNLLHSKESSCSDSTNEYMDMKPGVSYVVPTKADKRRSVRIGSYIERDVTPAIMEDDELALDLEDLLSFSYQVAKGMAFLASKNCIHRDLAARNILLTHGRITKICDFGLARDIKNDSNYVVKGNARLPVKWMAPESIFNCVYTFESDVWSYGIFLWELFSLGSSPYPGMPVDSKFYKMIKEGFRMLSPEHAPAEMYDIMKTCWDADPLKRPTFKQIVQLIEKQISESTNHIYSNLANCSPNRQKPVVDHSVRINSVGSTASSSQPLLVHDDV
method: uKit kinase enzymatic assay (pyruvate kinase/lactate dehydrogenase coupled)
conditionDescription: ATP 2000 μM, rate 3 to 4 h
Below is a list of entries, each paired with its recorded IC50 value.

Example entries begin here.
inputSmiles: Cc1nc(-n2nc(C(C)(C)C)[nH]c2=O)ccc1Oc1ccnc(NC(=O)N(C)C)c1
targetOrSystem: unphosphorylated c-KIT kinase (uKIT, Seq. ID no. 2) (Homo sapiens)
IC50: > 1 µM

inputSmiles: Cc1nc(-n2nc(C3(C)CC3)[nH]c2=O)ccc1Oc1ccnc(-c2cnn(C)c2)c1
targetOrSystem: unphosphorylated c-KIT kinase (uKIT, Seq. ID no. 2) (Homo sapiens)
IC50: 0.1 to 1 µM

inputSmiles: Cn1cc(-c2cc(Oc3ccc(-n4nc(Cc5ccc(F)cc5)[nH]c4=O)nc3)ccn2)cn1
targetOrSystem: unphosphorylated c-KIT kinase (uKIT, Seq. ID no. 2) (Homo sapiens)
IC50: 0.01 to 0.1 µM

inputSmiles: Cn1cc(-c2cc(Oc3ccc(-n4nc(C(C)(C)C)[nH]c4=O)nc3)ccn2)cn1
targetOrSystem: unphosphorylated c-KIT kinase (uKIT, Seq. ID no. 2) (Homo sapiens)
IC50: 0.01 to 0.1 µM

inputSmiles: Cc1nc(-n2nc(C(C)(C)C)[nH]c2=O)ccc1Oc1cc(-c2cnn(C)c2)ncn1
targetOrSystem: unphosphorylated c-KIT kinase (uKIT, Seq. ID no. 2) (Homo sapiens)
IC50: > 1 µM

Give recorded IC50. "Cc1cn(-c2cc(Oc3ccc(-n4nc(C(C)(C)C)[nH]c4=O)nc3C)ccn2)cn1" > 1 µM

Look up and state reported IC50 for "COC(C)(C)c1nn(-c2cc(C)c(Oc3ccnc(NC(C)=O)c3)cn2)c(=O)[nH]1" 0.1 to 1 µM

Quote IC50 reported for "CCn1cc(-c2cc(Oc3ccc(-n4nc(C(C)(C)C)[nH]c4=O)nc3C)ccn2)cn1" please. > 1 µM

====

System: phospho-FMS in THP-1 cells
method: Phospho-FMS ELISA assay in THP-1 cells
Format: cell-based
conditionDescription: Homo sapiens, 4 h compound, M-CSF stimulation 5 min, read-out: pFMS inhibition in THP-1 cells
pIC50: −log10 of the molar value.
Measured pIC50 accompanies every entry in the list below.

compound: CCC(C)(C)c1nn(-c2ccc(Oc3ccnc(-c4cnn(C)c4)c3)c(C)n2)c(=O)[nH]1 [Example 25]
pIC50: 7.00 to 8.00

compound: Cc1nc(-n2nc(Cc3ccccc3)[nH]c2=O)ccc1Oc1ccnc(-c2cnn(C)c2)c1 [Example 2]
pIC50: ≥ 8.00

compound: Cc1nc(-n2nc(C3CCC3)[nH]c2=O)ccc1Oc1ccnc(-c2cnn(C)c2)c1 [Example 37]
pIC50: ≥ 8.00

compound: Cc1nc(-n2nc(C3CCOCC3)[nH]c2=O)ccc1Oc1ccnc(-c2cnn(C)c2)c1 [Example 20]
pIC50: 6.00 to 7.00

compound: Cc1nc(-n2nc(C3(C)CC3)[nH]c2=O)ccc1Oc1ccnc(-c2cnn(C)c2)c1 [Example 27]
pIC50: 7.00 to 8.00

compound: Cc1cc(-n2nc(C(C)(C)C)[nH]c2=O)nc(C)c1Oc1ccnc(-c2cnn(C)c2)c1 [Example 33]
pIC50: 7.00 to 8.00

Provide only the value of recorded pIC50 for Cc1nc(-n2nc(C(C)(C)C)[nH]c2=O)ccc1Oc1ccnc(-c2cnn(C)c2)c1 [Example 7] 7.00 to 8.00

Specify pIC50 for Cc1nc(-n2nc(Cc3ccc(F)cc3)[nH]c2=O)ccc1Oc1ccnc(-c2cnn(C)c2)c1 [Example 1] and stop. 7.00 to 8.00

Tell us which pIC50 value is on record for Cc1nc(-n2nc(C(C)(C)C)oc2=O)ccc1Oc1ccnc(-c2cnn(C)c2)c1 [Example 49] 7.00 to 8.00

Give pIC50 for Cc1ccc(-c2cc(Oc3ccc(-n4nc(C(C)(C)C)[nH]c4=O)nc3C)ccn2)cn1 [Example 10] 7.00 to 8.00

Query pIC50 for Cc1nc(-n2nc(C(C)(C)C)[nH]c2=O)ccc1Oc1ccnc(-c2ccc(C3CCN(C)CC3)cc2)c1 [Example 14] 7.00 to 8.00
